test: passive permeability, PAMPA, ADME assay (AID 1508612); conditions: pH 7.4, 30.0 min, 50.0 µM
measurementType: Papp (×10⁻⁶ cm/s)

{"columns": ["compound", "measurementType", "valueReported"],
 "data": [
  ["COc1ccc(NC(=O)c2[nH]c(C)c(C(C)=O)c2C)cc1S(=O)(=O)N1CCCCCC1", "Papp", 989],
  ["CC1(C)C(=O)NC2=C1C(=O)C(=O)c1ccccc12", "Papp", 12.5],
  ["COc1ccc(-c2nc3ccc(C4=NNC(=O)CC4C)cc3[nH]2)cc1 (stereo not given)", "Papp", 228],
  ["COc1ccc(S(=O)(=O)Nc2cnccc2C(=O)Nc2nc(-c3ccccc3)cs2)cc1", "Papp", 675],
  ["Cc1ccc(S(=O)(=O)Nc2ccc(C(=O)Nc3nc(-c4ccccc4)cs3)cc2Cl)cc1", "Papp", 23.9]
]}
